Data provenance: paper PMC9096754

# study.target: human PDE10A2 (Homo sapiens)
# Construct: purchased Eurofins (Cerep), fee-for-service 4080; host or cells: Sf9
# Sequence (Q9Y233 267-1055): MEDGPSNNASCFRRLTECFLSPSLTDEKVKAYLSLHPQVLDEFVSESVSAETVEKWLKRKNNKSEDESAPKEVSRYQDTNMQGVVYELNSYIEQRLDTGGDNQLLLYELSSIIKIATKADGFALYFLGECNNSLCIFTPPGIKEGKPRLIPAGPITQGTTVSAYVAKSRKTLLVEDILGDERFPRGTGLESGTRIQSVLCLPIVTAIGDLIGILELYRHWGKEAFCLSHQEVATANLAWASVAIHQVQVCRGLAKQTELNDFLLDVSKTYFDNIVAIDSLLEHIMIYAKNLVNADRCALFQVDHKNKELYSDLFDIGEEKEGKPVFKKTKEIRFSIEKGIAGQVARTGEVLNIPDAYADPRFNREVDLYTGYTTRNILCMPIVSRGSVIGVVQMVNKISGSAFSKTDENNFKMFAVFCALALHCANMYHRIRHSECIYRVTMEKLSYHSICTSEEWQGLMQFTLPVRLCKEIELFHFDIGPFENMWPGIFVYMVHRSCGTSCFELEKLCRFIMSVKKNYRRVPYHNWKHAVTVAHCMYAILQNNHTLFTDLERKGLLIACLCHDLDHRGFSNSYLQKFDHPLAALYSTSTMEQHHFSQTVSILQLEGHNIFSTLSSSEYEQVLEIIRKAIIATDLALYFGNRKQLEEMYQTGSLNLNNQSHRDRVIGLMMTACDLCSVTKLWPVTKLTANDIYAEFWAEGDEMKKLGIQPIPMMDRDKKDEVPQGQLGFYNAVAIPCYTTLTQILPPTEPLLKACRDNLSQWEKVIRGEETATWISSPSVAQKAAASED
# procedure.text: Phosphodiesterase 10A2 (PDE10A2) enzymatic assay (Eurofins Cerep 4080)
# Assay type: biochemical
# condition.details: estimated from experimental IC50, Cheng and Prusoff
experimental.endpoint: Ki (µM)
Note: unit µM is implicit; provide only the numeric part.

Task: For CCS(=O)(=O)N1CC(CC#N)(n2cc(-c3ncnc4[nH]ccc34)cn2)C1 , what is its reported Ki?
Result: 6.1
